Target: UniProtKB P03372
Sequence (P03372 whole entry): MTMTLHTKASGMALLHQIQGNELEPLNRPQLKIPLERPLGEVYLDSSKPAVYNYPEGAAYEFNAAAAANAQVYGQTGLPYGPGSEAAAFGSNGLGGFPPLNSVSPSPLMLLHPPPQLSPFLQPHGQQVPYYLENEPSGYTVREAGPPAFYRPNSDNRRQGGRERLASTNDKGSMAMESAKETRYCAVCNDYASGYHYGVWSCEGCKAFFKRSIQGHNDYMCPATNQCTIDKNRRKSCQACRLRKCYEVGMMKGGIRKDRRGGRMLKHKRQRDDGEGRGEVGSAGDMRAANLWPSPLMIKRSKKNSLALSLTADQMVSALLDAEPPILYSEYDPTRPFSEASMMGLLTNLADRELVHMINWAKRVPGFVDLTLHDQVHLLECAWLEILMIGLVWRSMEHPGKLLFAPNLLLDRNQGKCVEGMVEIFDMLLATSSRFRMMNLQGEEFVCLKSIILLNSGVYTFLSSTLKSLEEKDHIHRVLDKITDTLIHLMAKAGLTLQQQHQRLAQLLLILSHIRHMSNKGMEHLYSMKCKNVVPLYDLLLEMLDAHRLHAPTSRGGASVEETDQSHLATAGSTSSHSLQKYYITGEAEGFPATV
Experiment: Alkaline phosphatase
Format: cell-based
Conditions: Ishikawa, read-out: AP % E max, Ishikawa (ECC-1) cells, agonist mode, 72 h
QUANTITY_NAME: Emax (%)
Note: unit % is implicit; provide only the numeric part.

Ask | Entry CCCN1CC(Oc2ccc([C@@H]3c4[nH]c5ccccc5c4C[C@@H](C)N3CCC(C)(C)O)cc2)C1 has what Emax?
Reply | 2

Ask | What do you have for C[C@@H]1Cc2c([nH]c3ccccc23)[C@@H](c2ccc(OC3CN(C)C3)cc2)N1CC(C)(C)F ?
Reply | 10

Ask | What do you have for CCCCN1CC(Oc2ccc([C@@H]3c4[nH]c5ccccc5c4C[C@@H](C)N3CC(C)(C)F)cc2)C1 ?
Reply | 27

Ask | What do you have for CCCN1CC(Cc2ccc([C@@H]3c4[nH]c5ccccc5c4C[C@@H](C)N3CC(C)(C)F)cc2)C1 ?
Reply | 8.5

Ask | What do you have for CCCN1CC(Oc2ccc([C@@H]3c4[nH]c5ccccc5c4C[C@@H](C)N3CC(C)(C)F)cc2F)C1 ?
Reply | 3.1
